test system: NCI-60 cell line collection; assay: NCI-60 cell line screen; type: cell-based; conditions: 17 cell lines (28%); read-out: IC50 in highly sensitive NCI-60 cell lines
measured-metric: IC50

Input line: Given C=C(C)C1CCC2(C(=O)O)CCC3(C)C(CCC4C5(C)Cc6nccnc6C(C)(C)C5CCC43C)C12 (stereo not shown) [SBI-0061739] , respond with its IC50.
Output line: < 2 µM
